- experimental_target: Progesterone receptor (Homo sapiens)
- test_summary: qHTS assay to identify small molecule antagonists of the progesterone receptor (PR) signaling pathway (AID 1346795)
- measurement_setup: PR-UAS-bla HEK293T, beta-lactamase FRET ratio, 16 h; series mostly up to 92.4 µM
Results filed as inconclusive are left out. Activity calls are given as the source filed them. Calls follow the shape of the dose curve; as a rule, active = well fitted inhibition curve with a large enough effect in the signal ratio in the repeat runs (not every such curve was filed as active); inconclusive = weak or mixed curves; inactive = flat fitted curve, though single readings scatter; the % refers to the signal ratio.
Outcome codes: y (active), n (inactive)

compound | experimental_target | label_class
CC(=O)[O][Sn]([c]1ccccc1)([c]1ccccc1)[c]1ccccc1 | Progesterone receptor (Homo sapiens) | y
O=[N+]([O-])c1cccc2cccc([N+](=O)[O-])c12 | Progesterone receptor (Homo sapiens) | y
CCC[CH2][Sn]([CH2]CCC)([CH2]CCC)[CH2]CCC | Progesterone receptor (Homo sapiens) | y
S=C=NCCc1ccccc1 | Progesterone receptor (Homo sapiens) | y
CCC[CH2][Sn]([CH2]CCC)([CH2]CCC)[O][Sn]([CH2]CCC)([CH2]CCC)[CH2]CCC | Progesterone receptor (Homo sapiens) | y
CCCCC/C=C\C/C=C\C/C=C\C/C=C\CCCC(=O)NCC(=O)O | Progesterone receptor (Homo sapiens) | y
[O]=[Cr][O][Cr]=[O] | Progesterone receptor (Homo sapiens) | n
O=C(CCCCl)c1ccc(F)cc1 | Progesterone receptor (Homo sapiens) | n
CC#C[C@]1(O)CC[C@H]2[C@@H]3C[C@H](C)C4=CC(=O)CC[C@]4(C)[C@H]3CC[C@@]21C | Progesterone receptor (Homo sapiens) | n
CC(Cc1ccc(OCC(=O)O)cc1)NCC(O)c1csc(C(F)(F)F)n1 (stereo not given) | Progesterone receptor (Homo sapiens) | n
